# kon values compiled below
target or system: T1, hPD-1 Avi-Tag Biotin (AcroBiosystems PD1-H82E4) (human, UniProt Q15116 25-167, biotin on Avi-Tag)
T1 construct: bought; also called human PD-1
T1 sequence (Q15116 25-167 limits assumed): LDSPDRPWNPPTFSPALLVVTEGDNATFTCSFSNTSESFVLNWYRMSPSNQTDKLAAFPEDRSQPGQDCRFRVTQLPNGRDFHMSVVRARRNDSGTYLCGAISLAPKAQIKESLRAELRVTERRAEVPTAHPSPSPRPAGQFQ
protocol text: SPR, Ab captured, PD-1 analyte
Field format: number, assumed M⁻¹ s⁻¹, no unit text.

z0-XVT458 (antibody, human IgG1, kappa, V domains shown, hIgG1; also called GH + uVL) VH: QVQLVQSGAEVKKPGASVKVSCKASGYTFTNFYIHWVRQAPGQGLEWMGSIYPNYGDTAYNQKFKDRVTMTTDTSTSTAYMELRSLRSDDTAVYYCARGYSYAMDYWGQGTTVTVSS VL: DIQMTQSPSSVSASVGDRVTITCSASQGISGDLNWYQQKPGKAPKLLIYHTSSLHSGVPSRFSGSGSGTDFTLTISSLQPEDFATYYCQYYSKDLLTFGGGTKLEIKR ... 91100
z6-XVT458 (antibody, human IgG1, kappa, V domains shown, hIgG1; numbering as for z1; also called GH + T071V + T073K) VH: QVQLVQSGAEVKKPGASVKVSCKASGYTFTNFYIHWVRQAPGQGLEWMGSIYPNYGDTAYNQKFKDRVTMTVDKSTSTAYMELRSLRSDDTAVYYCARGYSYAMDYWGQGTTVTVSS VL: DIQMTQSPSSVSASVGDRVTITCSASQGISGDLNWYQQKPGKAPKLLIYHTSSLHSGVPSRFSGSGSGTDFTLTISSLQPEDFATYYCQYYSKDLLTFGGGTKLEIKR ... 92000

Input line: Dear colleague, I am looking for the recorded kon of the following binder: z2-XVT458 (antibody, IgG1, V domains shown, full hIgG1; also called XVT458-z2; GH + T071V) VH: QVQLVQSGAEVKKPGASVKVSCKASGYTFTNFYIHWVRQAPGQGLEWMGSIYPNYGDTAYNQKFKDRVTMTVDTSTSTAYMELRSLRSDDTAVYYCARGYSYAMDYWGQGTTVTVSS VL: DIQMTQSPSSVSASVGDRVTITCSASQGISGDLNWYQQKPGKAPKLLIYHTSSLHSGVPSRFSGSGSGTDFTLTISSLQPEDFATYYCQYYSKDLLTFGGGTKLEIK
Output line: 90700

Input line: // repeat for z4-XVT458 (antibody, human IgG1, kappa, V domains shown, hIgG1; numbering as for z1; also called GH + V067A + T071V) VH: QVQLVQSGAEVKKPGASVKVSCKASGYTFTNFYIHWVRQAPGQGLEWMGSIYPNYGDTAYNQKFKDRATMTVDTSTSTAYMELRSLRSDDTAVYYCARGYSYAMDYWGQGTTVTVSS VL: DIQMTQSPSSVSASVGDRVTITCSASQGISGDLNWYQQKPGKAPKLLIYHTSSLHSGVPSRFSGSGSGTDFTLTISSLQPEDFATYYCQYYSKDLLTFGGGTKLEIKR and report
Output line: 98800
